- Assay Overview: DRUGMATRIX: Calcium Channel Type L, Dihydropyridine radioligand binding (ligand: [3H] Nitrendipine)
- Assay type: cell membranes, Rattus norvegicus, Wistar, Cerebral cortex, Membrane
- Details: Not Active = under 50% inhibition at 10 µM; read-out: Ki
Endpoint: pKi
One number for each entry, as −log10 of the molar value.

Compound	pKi
C#C[C@]1(O)CC[C@H]2[C@@H]3CCC4=Cc5oncc5C[C@]4(C)[C@H]3CC[C@@]21C	4.90

Then this compound:
Query block: Request the reported pKi associated with CCOC(=O)C1=C(C)NC(C)=C(C(=O)OC)C1c1cccc(Cl)c1Cl (configuration not stated)
Result block: 10.28

Reference source for all entries: ChEMBL document CHEMBL1909046
